- Test system: MDA-MB-231
- Experiment Notes: NCI tumour cell line growth inhibition, 48 h
The source made the active and inactive calls. Rule as the data show it: active = GI50 up to about 1.1 µM and inactive = higher.
The categories you may choose from are T (active), F (inactive)

As a guide, the following entries are already answered.
>>> label_class("Cc1ccc(S(=O)(=O)N2c3ccccc3[C@H]3CCc4c([nH]c5ccccc45)[C@H]32)cc1")
"T"
>>> label_class("O=C(NCCCl)Nc1ccccc1")
"F"
>>> label_class("CC1=C(CO)C(=O)O[C@@H]([C@@H](C)[C@H]2CC[C@H]3[C@@H]4C[C@@H](O)[C@@]5(O)CC=CC(=O)[C@]5(C)[C@H]4CC[C@]23C)C1 [JABOROSALACTONE D]")
"F"

Moving on to another compound below.
Q) Status in this test for Cc1nc2[nH]ccn2c(=O)c1CCCl ?
A) F

Reference for the values: ChEMBL document CHEMBL1201862
